Just for reference, patent US20230242496A1 is where these values come from.

# study-system: (His)6-SOX11-DBD protein (Homo sapiens, UniProt P35716)
# Construct: Recombinant (His)6-SOX11-DBD protein was immobilized
# Sequence (P35716 49-117 limits assumed): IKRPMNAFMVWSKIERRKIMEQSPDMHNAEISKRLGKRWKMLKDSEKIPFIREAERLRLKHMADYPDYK
# experiment-summary: Surface Plasmon Resonance (SPR) assay
# Type: binding
# applied-conditions: immobilized recombinant (His)6-SOX11-DBD, 25° C., compounds 5-40 μM, mean of three experiments
# Experimental: Surface Plasmon Resonance (SPR) Assay Recombinant (His)6-SOX11-DBD protein was immobilized at a flow rate of 10 μl/min for 180 seconds to the right channel of a gold-coated SCR NiHC200M sensor chip (XanTec bioanalytics) placed in a Reichert 2SPR instrument (Reichert Technologies). […] The ka, kd, and KD values were determined from the sensograms for at least 3 concentrations of each compound by curve fitting the data using Reichert's TraceDrawer software. […]
pKd: −log10 of the molar value.
endpoint-name: pKd

Reference set (3 entries):
compound=CN(Cc1cccc(NC(=O)c2ccc3snnc3c2)c1)c1ccccc1 numeric_result=4.41
compound=CN(Cc1ccc(NC(=O)c2ccc3nn[nH]c3c2)cc1)c1ccccc1 numeric_result=5.54
compound=O=C(Nc1cccc(S(=O)(=O)N2CCCCC2)c1)c1ccc2c(c1)CCCS2 numeric_result=5.52

A: CC(=O)NCCNc1nc(C)cc(C(=O)Nc2ccc(S(=O)(=O)Nc3ccccc3)cc2)n1
B: CC1Oc2ccc(C(=O)Nc3ccc(S(=O)(=O)Nc4ccccc4)cc3)cc2NC1=O (centres unmarked)
Could you check which of A and B has a smaller value for pKd? Write down the label of the entry you select.
A

---

Consider the following compounds and their measured IC50 readings.
# Test system: Jeko-1 (SOX11+)
# experiment-summary: Cell viability assay (CellTiter-Blue resazurin reduction)
# Format: cell-based
# applied-conditions: Homo sapiens; JeKo-1 cells, 72 hours, 0-40 μM
State just the number; it will be interpreted in µM.

compound="CC1Sc2ccc(C(=O)Nc3cccc(CNc4ccc(OS(=O)(=O)F)cc4)c3)cc2NC1=O (centres unmarked)" endpoint_name=IC50 endpoint_unit=µM numeric_result=10

Would you kindly look at the next entry?
Fill in IC50 for record CC1Sc2ccc(C(=O)Nc3cccc(CNc4cccc(S(=O)(=O)F)c4)c3)cc2NC1=O (centres unmarked)
19

---

Listing of entries alongside the reported viability at 20 µM.
# Tested on: Jeko-1 (SOX11+)
# experiment-summary: Cell viability assay (CellTiter-Blue resazurin reduction)
# Type: cell-based
# applied-conditions: Homo sapiens, JeKo-1, 72 h, JeKo-1 cells, 20 μM compound, normalized to 0.2% DMSO
Expressed in %, but write only the number.

Study these solved cases before continuing.
compound=O=C(Nc1ccc(S(=O)(=O)Nc2ccccc2)cc1)c1ccc2c(c1)CCCS2 endpoint_unit=% numeric_result=1.95
compound="CC1Sc2ccc(C(=O)Nc3ccc(S(=O)(=O)Nc4ccccn4)cc3)cc2NC1=O (centres unmarked)" endpoint_unit=% numeric_result=96.4

Output measured viability at 20 µM for this item: CC1Sc2ccc(C(=O)Nc3ccc(S(=O)(=O)Nc4ccc(Cl)cc4)cc3)cc2NC1=O (centres unmarked)
9.99

Input CC1Sc2ccc(C(=O)Nc3cccc(S(=O)(=O)Nc4ccccc4C(F)(F)F)c3)cc2NC1=O (centres unmarked) , output reported viability at 20 µM.
73.6

Give the reported value of viability at 20 µM for this record: CC1Sc2ccc(C(=O)Nc3ccc(CNc4ccccc4)cc3)cc2NC1=O (centres unmarked)
108

Quickly give me recorded viability at 20 µM for CC1Sc2ccc(C(=O)Nc3cccc(S(=O)(=O)NC4CCN(C(=O)OC(C)(C)C)CC4)c3)cc2NC1=O (centres unmarked)
13

Note down viability at 20 µM recorded for CN1C(=O)CSc2ccc(C(=O)Nc3ccc(S(=O)(=O)N4CCCCC4)c(Cl)c3)cc21
4.13

// fetch viability at 20 µM given entry CC1Sc2ccc(C(=O)Nc3cccc(OCc4ccccc4C(F)(F)F)c3)cc2NC1=O (centres unmarked)
87.1

Respond only with viability at 20 µM recorded for CC1Sc2ccc(C(=O)Nc3cccc(S(=O)(=O)NC4CCCC4)c3)cc2NC1=O (centres unmarked)
38.5

Indicate its recorded viability at 20 µM; the compound in question is Cc1ccc(NC(=O)c2ccc3c(c2)NC(=O)CS3)cc1S(=O)(=O)Nc1cccc(Cl)c1
26.3

Respond only with viability at 20 µM recorded for O=C1COc2ccc(C(=O)Nc3ccc(S(=O)(=O)Nc4ccccc4)cc3)cc2N1
61.1

For the compound CC1Sc2ccc(C(=O)Nc3ccc(CN4CCCC4)cc3)cc2NC1=O (centres unmarked) , report viability at 20 µM.
104
